The measurements presented in this section are drawn from patent US6420353B1.

Target: Cyp7b (Mus musculus, UniProt Q60991)
Sequence (Q60991 1-507): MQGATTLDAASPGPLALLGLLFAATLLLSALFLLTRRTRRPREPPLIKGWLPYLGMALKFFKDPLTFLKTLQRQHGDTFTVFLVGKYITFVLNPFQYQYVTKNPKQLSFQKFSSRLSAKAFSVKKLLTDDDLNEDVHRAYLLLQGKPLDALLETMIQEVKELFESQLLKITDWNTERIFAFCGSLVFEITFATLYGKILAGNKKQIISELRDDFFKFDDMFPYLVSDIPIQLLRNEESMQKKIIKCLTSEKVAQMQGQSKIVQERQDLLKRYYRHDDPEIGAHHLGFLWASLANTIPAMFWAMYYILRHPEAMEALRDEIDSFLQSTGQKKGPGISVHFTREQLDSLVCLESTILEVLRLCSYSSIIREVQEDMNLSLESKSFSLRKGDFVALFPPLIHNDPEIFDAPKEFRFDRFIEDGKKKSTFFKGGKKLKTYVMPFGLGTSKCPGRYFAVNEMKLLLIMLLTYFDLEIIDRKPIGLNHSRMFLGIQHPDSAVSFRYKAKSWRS
reported-metric: conversion of labelled steroid by Cyp7b microsomes to a lower mobility form on TLC

| compound | observed-value |
| --- | --- |
| C[C@]12CC[C@@H]3c4ccc(O)cc4CC[C@H]3[C@@H]1CC[C@@H]2O | converted by the enzymes |
| CC(=O)[C@H]1CC[C@H]2[C@@H]3CC=C4C[C@@H](O)CC[C@]4(C)[C@H]3CC[C@]12C | converted by the enzymes |
| C[C@H](CCCC(C)(C)O)[C@H]1CC[C@H]2[C@@H]3CC=C4C[C@@H](O)CC[C@]4(C)[C@H]3CC[C@]12C [25-hydroxycholesterol] | converted by the enzymes |
